Source: patent US20210101937A1

Molecular target: CD137 (UniProt Q07011 24-255, limits assumed)
Sequence (Q07011 24-255 limits assumed): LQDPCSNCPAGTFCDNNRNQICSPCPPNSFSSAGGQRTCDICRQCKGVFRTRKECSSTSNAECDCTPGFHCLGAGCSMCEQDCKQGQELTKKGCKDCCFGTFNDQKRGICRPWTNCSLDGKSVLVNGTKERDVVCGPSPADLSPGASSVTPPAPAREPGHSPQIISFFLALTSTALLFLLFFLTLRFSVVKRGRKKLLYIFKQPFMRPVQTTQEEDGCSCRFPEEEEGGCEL
Test: cell-based or functional assay
*1 amine or outer side, *2 acyl side, *3 side chain or, on linkers, in order; H or OH if unused. Bridges are numbered along the chain shown (N, C = ends). Roman numbers before positions name the chains, in order. Where no end group is shown, it is not given here. [ ]: non-standard residue; d: D form. The star is where a group is joined. TATA = O=C(CC[*:1])N1CN(C(=O)CC[*:2])CN(C(=O)CC[*:3])C1; Hyp = O=C(O)[C@@H]1C[C@@H](O)CN1; hArg = N=C(N)NCCCC[C@H](N)C(=O)O; tBuAla = CC(C)(C)C[C@H](N)C(=O)O; Nle = CCCC[C@H](N)C(=O)O; Pent4ynoyl = C#CCCC(=O)*
parameter: Fold improvement in EC50 over BCY9173 on same plate (fold)
Provide only the numeric value, understood in fold.

BCY12235 (Ac-C[tBuAla]PE[D-Lys]PYCFADPY[Nle]CA; Cys residues bonded to TATA scaffold; [Ac]A[HArg]DC[HyP]LVNPLCLK(PYA)P[dD]W[HArg]C; Cys residues bonded to TATA scaffold) peptide 1: AXDCXLVNPLCLKPDWXC peptide 2: CXPEKPYCFADPYXCA
1.1

(Q) Reported Fold improvement in EC50 over BCY9173 on same plate, binder BCY12236 (Ac-C[tBuAla]PE[D-Lys]PYCFADPY[Nle]CA; Cys residues bonded to TATA scaffold; [Ac]A[HArg]DC[HyP]K(PYA)VNPLCLHP[dD]W[HArg]C; Cys residues bonded to TATA scaffold) peptide 1: AXDCXKVNPLCLHPDWXC peptide 2: CXPEKPYCFADPYXCA : ____
(A) 1.4

(Q) Reported Fold improvement in EC50 over BCY9173 on same plate, binder BCY12233 (linker I:4-I:11-I:18, II:1-II:8-II:15 via TATA; linker II:N-II:5 via Peg5; also: two bicycles joined by Peg5 linker) peptide 1: Pent4ynoyl-A[hArg]DC[Hyp]LVNPLCLHP[dD]W[hArg]C peptide 2: Ac-C[tBuAla]PE[dK]PYCFADPY[Nle]CA : ____
(A) 1

(Q) Reported Fold improvement in EC50 over BCY9173 on same plate, binder BCY12237 (Ac-C[tBuAla]PE[D-Lys]PYCFADPY[Nle]CA; Cys residues bonded to TATA scaffold; [Ac]A[HArg]DC[HyP]LVNPLCK(PYA)HP[dD]W[HArg]C; Cys residues bonded to TATA scaffold) peptide 1: AXDCXLVNPLCKHPDWXC peptide 2: CXPEKPYCFADPYXCA : ____
(A) 1

(Q) Reported Fold improvement in EC50 over BCY9173 on same plate, binder BCY12234 (Ac-C[tBuAla]PE[D-Lys]PYCFADPY[Nle]CA; Cys residues bonded to TATA scaffold; [Ac]A[HArg]DC[HyP]LVNPLCLHP[dD]W[HArg]CK(PYA); Cys residues bonded to TATA scaffold) peptide 1: AXDCXLVNPLCLHPDWXCK peptide 2: CXPEKPYCFADPYXCA : ____
(A) 1
